molecular target: human A1 AR (Homo sapiens); assay: Radioligand competition binding (125I-ABA) to human A1 AR in CHO K1 cell membranes; conditions: selectivity ratio A1 over A2A
Sequence (P30542 whole entry): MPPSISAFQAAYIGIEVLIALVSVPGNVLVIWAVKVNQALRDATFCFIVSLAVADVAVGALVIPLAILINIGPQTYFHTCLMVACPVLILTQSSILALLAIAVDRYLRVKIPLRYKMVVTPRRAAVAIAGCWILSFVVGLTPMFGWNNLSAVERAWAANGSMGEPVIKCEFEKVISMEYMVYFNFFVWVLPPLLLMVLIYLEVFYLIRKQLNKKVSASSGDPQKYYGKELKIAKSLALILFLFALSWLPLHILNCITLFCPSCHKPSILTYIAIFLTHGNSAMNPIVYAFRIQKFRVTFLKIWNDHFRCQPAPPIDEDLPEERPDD
reported endpoint: A1/A2A

(P) CCNC(=O)[C@H]1O[C@@H](n2cnc3c(N)nc(C#CCC4CCC(C(=O)NC)CC4)nc32)C(O)C1O (stereo in doubt)
(Q) CCNC(=O)C1CCC(CC#Cc2nc(N)c3ncn([C@@H]4O[C@H](C(=O)NCC)C(O)C4O)c3n2)CC1 (stereo in doubt)
(R) CCNC(=O)[C@H]1O[C@@H](n2cnc3c(N)nc(C#CC4(O)CCCCC4C)nc32)C(O)C1O (single isomer, unassigned) [JR-3177A]
Please produce an ascending ranking of these molecules based on A1/A2A. A complete answer lists every label in the requested sequence.
R, P, Q
